- methodSummary: Inhibition of human erythrocyte 20s proteasome trypsin-like activity using Boc-LRR-MCA as substrate pretreated for 10 mins followed by substrate addition measured after 3 hrs by spectrophotometric method
observedProperty: IC50

[Q] I have this compound here, "C=C1CC[C@H]2C(C)(C)[C@H](O)CC[C@]2(C)[C@H]1CC1=C(O)C(=O)C2=C(C1=O)[C@@]13C=C[C@@H](O)[C@H](O)[C@]1(C2)C(=O)c1c(O)cc(C)cc1C3=O" , and I need its recorded IC50.
[A] > 50 µM

====

- methodSummary: Inhibition of human erythrocyte 20s proteasome caspase-like activity using Z-LLE-MCA as substrate pretreated for 10 mins followed by substrate addition measured after 3 hrs by spectrophotometric method
observedProperty: IC50 (µM)
One number for each entry, in µM.

[Q] I have this molecule here, "C=C1CC[C@H]2C(C)(C)[C@H](O)CC[C@]2(C)[C@H]1CC1=C(O)C(=O)C2=C(C1=O)[C@@]13C=C[C@@H](O)[C@H](O)[C@]1(C2)C(=O)c1c(O)cc(C)cc1C3=O" , and I need its recorded IC50.
[A] 17.3

The reported measurements were obtained from BindingDB's records for doi:10.1021/acs.jnatprod.6b01177.
